Tested on: CAKI-1 renal
Test: NCI-60 one-dose screen, 48 h
Details: 10 µM unless noted
Method: Growth inhibition of the CAKI-1 human tumor cell line is measured as a screen for anti-cancer activity. Cells are grown in 96 well plates and exposed to the test compound for 48 hours. Compounds are tested at a single concentration, which is 10^-5 M for most compounds. The reported endpoint is percent growth (GI% or GIPRCNT), where numbers from 0 - 100% represent growth inhibition, and numbers from -100% - 0 represent cell death. For example, a value of 40 represents 60% growth inhibition. […]
About 83,000 compounds went through this panel and 20% of them were active in at least one assay; those are over-represented in the sample as a whole. Calls of active or inactive are those of the source. How the source made its calls: active means growth percent below 10; inactive means the rest.
Outcome codes: active, inactive

> print(dat)
                                    molecule       cat
 1  C=CCn1c(SCC(=O)Nc2ccc(C(=O)/C=C/c3ccc(Cl)cc3)cc2)nnc1-c1ccccc1  inactive
 2               CCOc1ccc(N2C(=O)CCSC2=S)cc1  inactive
 3  Nc1ncc(-c2ccc3ncnc(N4CCc5cc(F)c(Cl)cc54)c3c2)cc1C(F)(F)F    active
 4   Cc1ccc(S(=O)(=O)N(CCC(=O)O)c2ccccc2)cc1  inactive
 5            Cc1nn(C)c2ncnc(Nc3ccccc3Br)c12  inactive
 6  COc1ccc2c(c1)c(-c1nc(-c3cn(C)c4ccncc34)cs1)cn2C  inactive
 7  CNC(=O)c1cc(Oc2ccc3nc(NC(=O)Nc4ccc(F)cc4F)sc3c2)ccn1  inactive
 8          O=C(Nc1ccccc1C(F)(F)F)C1=NCCCCN1  inactive
 9  CCOC(=O)c1c2c(n3ccc(NC(=O)CCN4CCCC4)cc13)C(=O)c1ncccc1C2=O    active
10  COc1ccc(Nc2nc(Nc3cc(C)[nH]n3)c3cc(OC)c(OC)cc3n2)cc1    active

----------
tested on: OVCAR-8 ovarian; test: NCI-60 one-dose screen, 48 h; settings: 10 µM unless noted
About 83,000 compounds went through this panel and 20% of them were active in at least one assay; those are over-represented in the sample as a whole. Activity calls are given as the source filed them. The calls were made as follows: active = growth percent below 10; inactive = the rest.
Outcome codes: active, inactive

> print(dat)
                                    molecule       cat
 1  CCCN1C(=O)N(CCC)C2C1NC(=S)N2/N=C/C=C/c1ccccc1OC (stereo not given)  inactive
 2  O=C(Nc1ccccc1CNc1nc(Nc2ccc(OCCN3CCCC3)cc2)ncc1Cl)NC1CCCCC1  inactive
 3  COc1ccc(C2CC(=O)Oc3c(OC)c4c(c(OC)c32)OCO4)cc1 (stereo not given)  inactive
 4  c1ccc(Cn2cc3c(c2)-c2nc(Nc4ccccc4)ncc2CC3)cc1  inactive
 5             CCN(CC)CCCNc1cc(OC)cc2cccnc12  inactive
 6  COc1ccc(/C=C\c2cc(OC)c(OC)c(OC)c2)cc1OCC(=O)Nc1nc2ccccc2s1  inactive
 7  Cc1ccc(C2=Nc3c(N)nc(N)nc3NC(c3cccc(Nc4ccnc5cc(C(F)(F)F)ccc45)c3)C2)cc1 (stereo not given)  inactive
 8  CCNc1nc(-c2ccc(Cl)c(OC)c2)c(-c2ccnc(NCCNS(=O)(=O)c3ccc(Cl)cc3)n2)s1  inactive
 9     Oc1ccc(C(c2ccc(O)cc2)c2ccc(Cl)cn2)cc1    active
10                Cc1ccc(Nc2cc(N)nc(N)n2)cc1  inactive

----------
system: RPMI-8226 leukemia; test: NCI-60 one-dose screen, 48 h (100 = growth as untreated, 0 = no growth, -100 = all killed); conditions: 10 µM unless noted
About 83,000 compounds went through this panel and 20% of them were active in at least one assay; those are over-represented in the sample as a whole. Calls of active or inactive are those of the source. Rule for the calls: active = growth percent below 10; inactive = the rest.
measurement_kind: growth

> print(dat)
                                    compound  measurement.kind        test.value
 1  CN(C)c1ccc(Cc2cc(-c3ccccc3)nn(C/C(=N/O)c3ccccc3)c2=O)cc1            growth  28.2% (inactive)
 2  Oc1cccc(-c2nc(-c3n[nH]c(=S)n3-c3ccccc3)cc3c2[nH]c2ccccc23)c1            growth  17.8% (inactive)
 3  O=C(/C=C/c1ccco1)c1ccc(Nc2ccnc3cc(Cl)ccc23)cc1            growth   -34.9% (active)
 4  Cc1ccc(C23CCC(=O)N2CCc2cncn23)cc1 (stereo not given)            growth   100% (inactive)
 5  CCCCCCCCNc1ncnc2c1ncn2Cc1nnc2c3ccccc3c(Cl)nn12            growth  35.4% (inactive)
 6   COc1ccc(-c2ccc(-c3ccc(C(=N)N)nc3)s2)cc1            growth   -41.1% (active)
 7  NS(=O)(=O)Oc1cccc(-c2nc3sccn3c2-c2ccccc2)c1            growth  44.1% (inactive)
 8  CC1=C([Se]CC(OC(=O)[C@@H](CO)NC(=O)OC(C)(C)C)C(=O)NCCCCCC(=O)OCc2ccccc2)C(=O)c2ccccc2C1=O (stereo not given in full)            growth   -28.9% (active)
 9  COc1cc(-c2ccc(-c3ccc(C(=N)N)s3)s2)cc(OC)c1OC            growth   -34.7% (active)
10  c1ccc2[nH]c(-c3ccc(-c4nccc5c4[nH]c4ccccc45)cc3)nc2c1            growth  61.1% (inactive)

----------
The following molecules are listed with their measured growth values.
test system: NCI-H460 lung; experiment: NCI-60 one-dose screen, 48 h (100 = growth as untreated, 0 = no growth, -100 = all killed); settings: 10 µM unless noted
Compounds without any hit were thinned out: in the full panel of roughly 83,000, 20% have a hit.

molecule	growth / %
COc1ccc(C2CC(=O)Oc3c(OC)c4c(c(OC)c32)OCO4)cc1 (configuration not stated)	107
CCCCC/C=C/CCC(=O)N[C@H]1[C@H](Oc2c3cc4cc2Oc2ccc(cc2Cl)[C@@H](O[C@@H]2O[C@H](CO)[C@@H](O)[C@H](O)[C@H]2NC(C)=O)[C@@H]2NC(=O)[C@H](NC(=O)[C@@H]4NC(=O)[C@H]4NC(=O)[C@@H](Cc5ccc(c(Cl)c5)O3)NC(=O)[C@@H](N)c3ccc(O)c(c3)Oc3cc(O)cc4c3)c3ccc(O)c(c3)-c3c(O[C@H]4O[C@H](CO)[C@@H](O)[C@H](O)[C@@H]4O)cc(O)cc3[C@H](C(=O)O)NC2=O)O[C@H](CO)[C@H](O)[C@@H]1O	107

----------
tested on: MOLT-4 leukemia; assay: NCI-60 one-dose screen, 48 h (100 = growth as untreated, 0 = no growth, -100 = all killed); settings: 10 µM unless noted
Compounds without any hit were thinned out: in the full panel of roughly 83,000, 20% have a hit. Active and inactive are the calls of the source. Rule for the calls: active = growth percent below 10; inactive = the rest.

compound	growth
CCN1C(=O)N(CC)C2C1NC(=S)N2/N=C/C=C/c1cccs1 (stereo unspecified)	20.4% (inactive)
Cn1nc(-c2ccc(Cl)cc2)nc2c(=O)n(C)c(=O)nc1-2	-47.3% (active)
O=C(O)/C=C/c1cn(-c2ccccc2)nc1-c1ccc(F)cc1	109% (inactive)
COc1ccccc1/C=C/C1=C(C)CCC(c2ccccc2OC)C1C (stereo unspecified)	4.37% (active)
CCCN1C(=O)N(CCC)C2C1NC(=S)N2/N=C/C=C/c1ccccc1OC (stereo unspecified)	27.6% (inactive)
C#CC#CC#CC#CC#CC#CC#CC#CC[C@@H]1OC[C@H](COC(=O)O[C@@H](C(=O)O[C@H]2C[C@@]3(O)[C@@H](OC(=O)c4ccccc4)[C@@H]4[C@]5(OC(C)=O)CO[C@@H]5C[C@H](O)[C@@]4(C)C(=O)[C@H](OC(C)=O)C(=C2C)C3(C)C)[C@@H](NC(=O)c2ccccc2)c2ccccc2)O1	30.9% (inactive)
O=C(Nc1ncc(Cc2ccccc2)s1)c1ccc2c(c1)OCCO2	6.38% (active)
CNC(=O)c1cc(Oc2ccc3nc(NC(=O)c4cc(C(F)(F)F)cc(C(F)(F)F)c4)sc3c2)ccn1	8.03% (active)
COc1cccc(NC(=O)c2sc3nc(C)c(C(=O)c4ccccc4)cc3c2N)c1	115% (inactive)
O=C(COc1ccc(/C=C2\Oc3ccccc3C2=O)cc1)Nc1nccs1	42.3% (inactive)
OC1CSSC1Cn1cnc2c(Nc3ccc(F)c(Cl)c3)ncnc21 (stereo unspecified)	-27.1% (active)
O=c1oc2ccccc2cc1-c1nn(-c2ccccc2)cc1/C=N/Nc1nc(-c2ccccc2)c(N=Nc2ccccc2)s1	53.5% (inactive)
Nc1ccc(N)c2c1C(=O)c1cccc([N+](=O)[O-])c1C2=O	46.5% (inactive)
COCCNC(=O)Cc1cc(-c2ccc(Cl)cc2)n(-c2ccccc2)c1C	90% (inactive)
O=C(N/N=C/c1ccccc1Cl)c1ccccc1Nc1ccnc(C(F)(F)F)c1	2.63% (active)
CSc1nc(CC(C)C)c(C#N)c(=O)n1C	46.1% (inactive)
C=CCNc1nc(O)c(/C=C2\C=Nc3ncccc32)s1	5.78% (active)
COc1cc(C2=Nc3c(N)nc(N)nc3NC(c3cccc(Nc4ccnc5cc(C(F)(F)F)ccc45)c3)C2)cc(OC)c1OC (stereo unspecified)	19.2% (inactive)
O=C(/C=C\c1ccc(O)c(O)c1)c1ccccc1O	49.1% (inactive)
O=C(/C=C/c1cccc([N+](=O)[O-])c1)c1ccc(Nc2nc(Nc3ccc(F)cc3)nc(Nc3ccc(Cl)cc3)n2)cc1	3.89% (active)
CC1OC(C(=O)N2CCN(CCO)CC2)CC1COC1CCCCC1 (stereo unspecified)	97.1% [50 µM] (inactive)
C=C1C(=O)O[C@H]2[C@H]1CC/C(COC(=O)NCc1ccc(Cn3c(=O)sn(CCCC)c3=O)cc1)=C\CC[C@@]1(C)O[C@@H]21	1.1% (active)
COc1cccc(/C=C/C(=O)/C=C(/C=C/c2cccc(OC)c2OC)OB(F)F)c1OC	9.58% (active)
COc1cccc(C2C3=C(COC3=O)N(CCO)c3cc4c(cc32)OCCO4)c1 (stereo unspecified)	11.8% (inactive)
O=C(/C=C/c1ccc(Cl)cc1)c1ccc(-n2cc(CN3CCN(c4cc5c(cc4F)c(=O)c(C(=O)O)cn5C4CC4)CC3)nn2)cc1	81.7% (inactive)
O=C1/C(=C/c2ccc(Br)cc2)COc2ccc(O)cc21	16.6% (inactive)
CCOC(=O)CC1C(CNC(=O)NC)OC(n2cnc3c(NC(=O)Nc4ccccc4)ncnc32)C1O[Si](C)(C)C(C)(C)C (stereo unspecified)	50.1% (inactive)
CO[C@H]1CC(c2ccc[nH]2)=N[C@]12O[C@@H](C)C[C@@H]1CCCCCCCc3ccc([nH]3)[C@H]12	20.6% (inactive)
Cc1c(C)c2c(c(C)c1OC(=O)CCC(=O)[O-])CCC(C)(CCCCCCCCCCC[P+](c1ccccc1)(c1ccccc1)c1ccccc1)O2 (stereo unspecified)	-25.5% (active)
Cc1nc2cccc(NCc3ccc(C(=O)NO)cc3)c2c(=O)n1-c1ccccc1	11.5% (inactive)
CCN(CC)CCN1C(=O)c2c(c(C)c3c(oc4cc(OC)ccc43)c2C)C1=O	61.1% (inactive)
CC(CN)[C@@H]1CC[C@]2(CO)CC[C@]3(C)[C@H](CC[C@@H]4[C@@]5(C)CCC(NCCO)C(C)(C)[C@@H]5CC[C@]43C)[C@@H]12 (stereo partly specified)	18.3% (inactive)
O=CN1N=C(c2cccc(Nc3ccncc3)c2)CC1c1ccc2c(c1)OCO2 (stereo unspecified)	92.3% (inactive)
C/C=C(/C)C(=O)O[C@@H]1CC(C)(C)CC2C34OC(=O)[C@@]21CC[C@@]3(C)[C@]1(C)CCC2C(C)(C)C(=O)CC[C@]2(C)C1C[C@@H]4O (stereo partly specified)	24.2% (inactive)
CCOC(=O)C#Cc1c(CC(=O)OCC)nnn1[C@H]1O[C@@H](CO)[C@@H]2OC(C)(C)O[C@@H]21	50.1% (inactive)
CC(Cc1cccc2ccccc12)C(N)=O (stereo unspecified)	99.8% (inactive)

The reported measurements were obtained from PubChem BioAssay (NCI).
